Origin of the recorded values: ChEMBL document CHEMBL1125685

Measured Glucose normalisation values are reported for all entries that follow.
# System: Mus musculus
# assayNotes: Percentage glucose normalization relative to the ciglitazone effect at 50 mg/kg, which lower blood glucose levels to that of the lean littermates at the dose 0.1 mg/kg (in mice)
# Format: functional
quantity: Glucose normalisation (%)

{"compound": "Cc1oc(-c2ccc3ccccc3c2)nc1Cc1cc2cc(CC3OC(=O)NC3=O)ccc2o1 (stereo not given)", "measuredTarget": "Mus musculus", "quantityUnit": "%", "value": 76}
{"compound": "Cc1oc(-c2ccccc2)nc1Cc1cc2cc(CC3OC(=O)NC3=O)ccc2o1 (stereo not given)", "measuredTarget": "Mus musculus", "quantityUnit": "%", "value": 92}
{"compound": "Cc1oc(C2CCCCC2)nc1Cc1cc2cc(CC3OC(=O)NC3=O)ccc2o1 (stereo not given)", "measuredTarget": "Mus musculus", "quantityUnit": "%", "value": 64}
{"compound": "Cc1cccc(-c2nc(Cc3cc4cc(CC5OC(=O)NC5=O)ccc4o3)c(C)o2)c1 (stereo not given)", "measuredTarget": "Mus musculus", "quantityUnit": "%", "value": 90}
{"compound": "Cc1ccc(-c2nc(Cc3cc4cc(CC5OC(=O)NC5=O)ccc4o3)c(C)o2)cc1 (stereo not given)", "measuredTarget": "Mus musculus", "quantityUnit": "%", "value": 40}
